assay_system: Regulator of G-protein signaling 16 (Homo sapiens) + Guanine nucleotide-binding protein G(o) subunit alpha (Homo sapiens) (UniProt O15492+P09471)
Sequence (O15492 whole entry, looked up): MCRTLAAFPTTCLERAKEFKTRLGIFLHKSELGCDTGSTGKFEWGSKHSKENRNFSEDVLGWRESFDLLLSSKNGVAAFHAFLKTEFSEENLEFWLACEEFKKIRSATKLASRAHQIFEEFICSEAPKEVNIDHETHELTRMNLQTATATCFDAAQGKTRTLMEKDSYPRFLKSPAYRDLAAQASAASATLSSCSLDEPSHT
Sequence (P09471 whole entry, looked up): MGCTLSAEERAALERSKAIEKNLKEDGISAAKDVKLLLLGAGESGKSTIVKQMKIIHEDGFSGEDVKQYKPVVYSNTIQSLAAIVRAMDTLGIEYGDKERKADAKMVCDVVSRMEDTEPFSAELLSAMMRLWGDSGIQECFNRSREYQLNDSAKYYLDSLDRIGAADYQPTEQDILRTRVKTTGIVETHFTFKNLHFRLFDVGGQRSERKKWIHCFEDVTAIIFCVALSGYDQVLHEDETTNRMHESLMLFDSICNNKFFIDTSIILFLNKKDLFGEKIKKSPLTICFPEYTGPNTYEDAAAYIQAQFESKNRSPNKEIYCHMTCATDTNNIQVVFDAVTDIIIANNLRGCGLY
protocol_notes: modulators of RGS16 binding to Galphao, primary screen, biochemical, human proteins, multiplexed bead flow cytometry (AID 1441);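 also: Galphao activated by GDP with aluminum fluoride before binding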
condition_info: bead-based flow cytometry RGS16-Galphao binding, fluorescence; at 10 µM; actives lie on both sides
Among all 220,000 compounds or so, about 830 (0.38%) were called active. No rule for the calls is given here. This is one part of a sample in which actives are shown more often than they occur.
Permitted responses: yes (1) (active), no (0) (inactive)

// outcome(item) with item = `COc1cc2[nH]c(=S)n(Cc3ccc(F)cc3)c(=O)c2cc1OC`
no (0)

Answer briefly: the call reported for `CCc1cccc(C)c1NC(=S)N(CCCN1CCN(C)CC1)Cc1cccs1` in this assay.
no (0)

For this compound, state the assay outcome: `Cc1ccccc1NC(=S)N(CCCN1CCOCC1)Cc1cccs1`
yes (1)

For `CC(C)(CNC(=O)c1ccc(Cl)c(S(=O)(=O)N2CCc3ccccc3C2)c1)N1CCOCC1` , which call appears in the assay record?
no (0)

What outcome does the record of this test show for `CCCC[C@@H]1CN=C(N)N1CCc1cc(C(F)(F)F)cc(C(F)(F)F)c1` ?
no (0)

What was the test verdict on `O=C(NCc1ccccc1)c1ccc(CNc2c(N3CCCC3)c(=O)c2=O)cc1` ?
no (0)

Short answer needed: outcome of this test for `Cc1ccc(C(=O)N/C(=C/c2cccnc2)C(=O)O)cc1` ?
no (0)

Any idea what this test logged for `Cc1ccc(S(=O)(=O)c2c(N)n(C)c3nc4ccccc4nc23)cc1` ?
no (0)

Given Nc1ccc(C(=O)OCC(=O)NC2CCCc3ccccc32)cc1[N+](=O)[O-] (stereo not given) , state the outcome it received in this test.
no (0)

Called result for `Nc1c(N(CCO)C(=O)C2CCCCC2)c(=O)[nH]c(=O)n1Cc1ccccc1`
no (0)
